Provenance of the data: paper PMC4336329

biological target: human ether-à-go-go-related gene (hERG) potassium channel (human, UniProt Q12809); experiment: primary screen, population patch clamp on CHO cells stably expressing hERG; higher = less effect of the substance
Sequence (Q12809 whole entry, looked up): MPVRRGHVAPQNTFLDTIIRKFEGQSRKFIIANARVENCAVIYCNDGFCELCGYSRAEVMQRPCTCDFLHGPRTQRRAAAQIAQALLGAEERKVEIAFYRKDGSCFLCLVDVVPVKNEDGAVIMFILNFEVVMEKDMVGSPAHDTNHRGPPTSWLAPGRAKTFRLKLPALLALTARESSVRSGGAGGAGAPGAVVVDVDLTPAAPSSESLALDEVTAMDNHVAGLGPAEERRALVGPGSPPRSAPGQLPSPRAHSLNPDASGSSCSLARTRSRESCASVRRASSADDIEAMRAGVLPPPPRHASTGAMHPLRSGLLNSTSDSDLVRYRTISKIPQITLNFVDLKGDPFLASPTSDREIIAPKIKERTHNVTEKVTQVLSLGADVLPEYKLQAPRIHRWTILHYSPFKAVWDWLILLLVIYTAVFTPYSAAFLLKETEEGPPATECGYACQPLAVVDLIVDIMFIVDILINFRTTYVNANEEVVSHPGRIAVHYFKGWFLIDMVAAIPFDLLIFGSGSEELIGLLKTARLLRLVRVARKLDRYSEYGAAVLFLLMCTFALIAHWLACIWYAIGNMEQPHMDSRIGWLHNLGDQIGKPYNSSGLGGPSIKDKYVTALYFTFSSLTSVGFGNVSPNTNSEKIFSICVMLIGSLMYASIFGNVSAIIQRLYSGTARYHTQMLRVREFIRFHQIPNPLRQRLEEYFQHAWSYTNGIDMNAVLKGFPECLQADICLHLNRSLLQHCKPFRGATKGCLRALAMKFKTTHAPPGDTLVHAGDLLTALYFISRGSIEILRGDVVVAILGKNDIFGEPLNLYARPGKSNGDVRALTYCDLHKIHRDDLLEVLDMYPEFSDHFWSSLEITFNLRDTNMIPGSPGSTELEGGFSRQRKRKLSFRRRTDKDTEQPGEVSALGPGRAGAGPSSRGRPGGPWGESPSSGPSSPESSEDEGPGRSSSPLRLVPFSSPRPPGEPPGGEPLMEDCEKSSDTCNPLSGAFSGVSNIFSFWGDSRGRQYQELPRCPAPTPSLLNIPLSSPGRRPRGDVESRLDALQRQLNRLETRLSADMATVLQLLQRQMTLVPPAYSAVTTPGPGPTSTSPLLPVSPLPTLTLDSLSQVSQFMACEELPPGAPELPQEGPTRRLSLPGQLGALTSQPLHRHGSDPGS
Screen size: about 310,000 compounds; about 2,200 (0.71%) showed an effect of 50% or more. The effect is printed as a negative number. The entries come from a sample that favours strong results as a whole.
quantity: hERG current change (%, negative = inhibition) at 1uM (%)
Write down the numeric answer in % and omit the unit.

Worked cases, answers included:
[[record]]
molecule = "Nc1nc(CN2CCc3ccccc3C2)nc(Nc2ccccc2)n1"
value_reported = -10.8

[[record]]
molecule = "CC(C)(C)NCc1cc2ccccc2[nH]c1=O"
value_reported = 8.1

[[record]]
molecule = "Cc1nnsc1C(=O)NNC(=O)c1cccc2ccccc12"
value_reported = 9.5

[[record]]
molecule = "CC(C)OCC(O)CN1CCC(Cc2ccccc2)CC1.Cl (stereo not drawn)"
value_reported = -2.15

[[record]]
molecule = "N#Cc1ccc(OCC(O)CN2CCN(CC(O)COc3ccc(C#N)cc3)CC2)cc1 (stereo not drawn)"
value_reported = -91.3


Query: Param item = CCCCNC(C(=O)Nc1ccc([N+](=O)[O-])cc1Br)c1ccccc1 (stereo not drawn) ; retrieve measured hERG current change (%, negative = inhibition) at 1uM.
Result: 10.5

Query: Given the molecule COC(=O)c1sccc1-n1cccc1C(=O)C(=O)N1CCCC1 , what is its reported hERG current change (%, negative = inhibition) at 1uM?
Result: 6.84

Query: // returns reported hERG current change (%, negative = inhibition) at 1uM for input Cl.OC(COc1ccc(Cl)cc1)CN1CCN(c2ccccc2)CC1 (stereo not drawn)
Result: 0.0675

Query: Look at this molecule and give its reported hERG current change (%, negative = inhibition) at 1uM. COC(=O)[C@]1(C)N[C@H](c2ccc(-c3ccccc3)cc2)[C@@H]2C(=O)N(C)C(=O)[C@@H]21.O=C(O)C(F)(F)F
Result: 15.8

Query: Suppose we examine the molecule O=c1[nH]c(SCc2ccccc2)nc2c1cnn2-c1ccc(F)cc1 ; what hERG current change (%, negative = inhibition) at 1uM value has been reported?
Result: 4.7

###

In this section we review reported hERG current change (%, negative = inhibition) at 1uM values for a set of molecules.
target: human ether-à-go-go-related gene (hERG) potassium channel (human, UniProt Q12809); assay: primary screen, population patch clamp on CHO cells stably expressing hERG; higher = less effect of the substance
Screen size: about 310,000 compounds; about 2,200 (0.71%) showed an effect of 50% or more. The effect is printed as a negative number. The sample as a whole holds a higher share of strong results than the screen did.
Write down the numeric answer in % and omit the unit.

These recorded examples may help you get a feel for the data.
[[record]]
molecule = "COc1cccc(CN2CCCC(C(=O)c3ccc4c(c3)OCO4)C2)c1O (stereo not drawn)"
subject_of_test = "human ether-à-go-go-related gene (hERG) potassium channel (human, UniProt Q12809)"
value_reported = -44.6

[[record]]
molecule = "Cc1ccc(NCc2nnc(SCC(=O)NCc3ccco3)n2CC2CCCO2)cc1Cl (stereo not drawn)"
subject_of_test = "human ether-à-go-go-related gene (hERG) potassium channel (human, UniProt Q12809)"
value_reported = -5.15


# context switch: different molecule, same hERG current change (%, negative = inhibition) at 1uM
Query: What value of hERG current change (%, negative = inhibition) at 1uM has been recorded for this entry: CCOc1ccccc1OCC(=O)OCC(=O)c1c(N)n(CC(C)C)c(=O)n(C)c1=O
Result: -9.86
